Tested on: NFF
Assay: Antiproliferative activity against human NFF cells
Assay type: functional, cell-based
pIC50: −log10 of the molar value.
Returns 1 if the recorded pIC50 is greater than or equal to 6, and 0 otherwise.

{"Compound": "O=C(CCCCC[C@H](NC(=O)Cc1c[nH]c2ccccc12)C(=O)NCc1ccccc1)NO", "Class Label": 0}
{"Compound": "O=C(CCCCC[C@H](NC(=O)C12CC3CC(CC(C3)C1)C2)C(=O)NCc1ccccc1)NO", "Class Label": 0}
{"Compound": "O=C(CCCCC[C@H](NC(=O)c1cc2ccccc2[nH]1)C(=O)Nc1cccc2cccnc12)NO", "Class Label": 1}
{"Compound": "O=C(CCCCC[C@H](NC(=O)OCc1ccccc1)C(=O)NC1CCCc2ccccc21)NO (some centres undefined)", "Class Label": 0}
{"Compound": "CN(C)c1ccc(NC(=O)[C@H](CCCCCC(=O)NO)NC(=O)/C=C/c2ccccc2)cc1", "Class Label": 1}
{"Compound": "O=C(CCCCC[C@H](NC(=O)c1ccc(Br)cc1)C(=O)NCc1ccncc1)NO", "Class Label": 0}
{"Compound": "O=C(CCCCCC(NC(=O)c1ccco1)C(=O)NCc1ccccc1)NO (centres undefined)", "Class Label": 0}
{"Compound": "O=C(/C=C/c1ccccc1)N[C@@H](CCCCCC(=O)NO)C(=O)NCc1ccccc1", "Class Label": 0}
{"Compound": "O=C(CCCCC[C@H](NC(=O)c1ccc(Br)cc1)C(=O)Nc1ccc(-c2ccccc2)cc1)NO", "Class Label": 1}
{"Compound": "CC(C)COC(=O)N[C@@H](CCCCCC(=O)NO)C(=O)Nc1cccc2cccnc12", "Class Label": 1}
{"Compound": "CC(C)CCNC(=O)C(CCCCCC(=O)NO)NC(=O)c1cccnc1 (centres undefined)", "Class Label": 0}
{"Compound": "O=C(CCCCC[C@H](NC(=O)c1ccc(Br)cc1)C(=O)NCc1ccccn1)NO", "Class Label": 0}
{"Compound": "CN(C)c1ccc(NC(=O)[C@H](CCCCCC(=O)NO)NC(=O)OCc2ccccc2)cc1", "Class Label": 1}
{"Compound": "O=C(CCCCC[C@H](NC(=O)CCCc1c[nH]c2ccccc12)C(=O)NCc1ccccc1)NO", "Class Label": 0}
{"Compound": "O=C(CCCCC[C@H](NC(=O)c1cccs1)C(=O)NCc1ccccc1)NO", "Class Label": 0}
{"Compound": "CN(C)c1ccc(NC(=O)[C@H](CCCCCC(=O)NO)NC(=O)c2ccc(C(F)(F)F)cc2)cc1", "Class Label": 1}
